Ref: the supplement of paper PMC10065799

# phosphorylation enrichment annotations
# target: Fyn (UniProt P06241)
# Sequence (P06241 whole entry, looked up): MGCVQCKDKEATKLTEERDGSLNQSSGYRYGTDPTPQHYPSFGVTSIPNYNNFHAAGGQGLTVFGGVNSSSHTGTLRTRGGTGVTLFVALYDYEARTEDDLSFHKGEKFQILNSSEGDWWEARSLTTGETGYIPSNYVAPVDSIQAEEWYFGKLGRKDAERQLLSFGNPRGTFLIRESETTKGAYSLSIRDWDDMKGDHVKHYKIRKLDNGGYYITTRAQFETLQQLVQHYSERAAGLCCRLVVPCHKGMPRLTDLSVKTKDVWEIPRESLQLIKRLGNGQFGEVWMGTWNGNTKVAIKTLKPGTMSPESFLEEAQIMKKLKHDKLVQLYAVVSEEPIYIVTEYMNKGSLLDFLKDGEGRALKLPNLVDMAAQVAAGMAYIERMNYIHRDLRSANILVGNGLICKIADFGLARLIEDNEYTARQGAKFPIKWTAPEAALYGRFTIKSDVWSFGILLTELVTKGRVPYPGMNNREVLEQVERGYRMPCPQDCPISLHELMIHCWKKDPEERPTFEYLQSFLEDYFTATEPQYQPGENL
# assay_name: phosphorylation enrichment, bacterial display (enrichment ratio); higher = better substrate or ligand; peptides without Tyr show the background;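 also: 11-residue human phosphosite peptides and single-mutation variants displayed on the E. coli surface, counted by deep sequencing, each peptide's frequency after selection divided by its frequency in the unselected input library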;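 also: frequency after pTyr selection over input frequency; kinase dosed for 20-30% of maximal phosphorylation in three min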
Respond using a number only.

Solved entries:
primary_sequence: CSDPSYVKQME [CDC5L_Y464_Y459C]
reported_result: 0.467
--
primary_sequence: LFLACYCIGGG [UBD_Y161]
reported_result: 0.72
--
primary_sequence: YEPDAYDDLDQ [ELP5_Y302]
reported_result: 0.496
--
primary_sequence: IEDPYYGNDFD [ACP1_Y133_S137F]
reported_result: 1.65
--
primary_sequence: VDTFWYKFLKP [EPM2A_Y86_R91P]
reported_result: 0.388
--
primary_sequence: GRGMPYGGRGD [TGM1_Y312_R307G]
reported_result: 0.343

Continue with the sequence presented below.
q: Tell me its phosphorylation enrichment on Fyn (UniProt P06241): DQGEQYKKELE [LMNA_Y259_V256G]
a: 0.488
